I'd appreciate it if you could supply PDI values for the items below.
test: Characterisation of lipid nanoparticle formulations (size, PDI, mRNA encapsulation); assay type: physicochemical; conditions: lipid nanoparticle with FFL mRNA; Process A; Cationic Lipid:DMG-PEG2000:Cholesterol:DOPE 40:5:25:30 mol%; N/P 4

-- ask Return PDI (reported value) for this compound: CCCCCCCCCCCCC(O)CN(CCCC(=O)Oc1c(OC)cc(C(=O)OCCCN(C)C)cc1OC)CC(O)CCCCCCCCCCCC (stereo not shown)
-- reply 0.249

-- ask Return PDI (reported value) for this compound: CCCCCCCCCCCCC(O)CN(CCCCC(=O)Oc1c(OC)cc(C(=O)OCCCN(C)C)cc1OC)CC(O)CCCCCCCCCCCC (stereo not shown)
-- reply 0.208

-- ask Return PDI (reported value) for this compound: CCCCCCCCC(O)CN(CCCCC(=O)Oc1c(OC)cc(C(=O)OCCCN(C)C)cc1OC)CC(O)CCCCCCCC (stereo not shown) [Compound 9]
-- reply 0.213

-- ask Return PDI (reported value) for this compound: CCCCCCCCCCC(O)CN(CCCCC(=O)Oc1c(OC)cc(/C=C/C(=O)OCCCN(C)C)cc1OC)CC(O)CCCCCCCCCC (stereo not shown)
-- reply 0.213

----------
assay: Characterisation of lipid nanoparticle formulations (size, PDI, mRNA encapsulation); assay type: physicochemical; settings: lipid nanoparticle with FFL mRNA; Process A; Cationic Lipid:DMG-PEG2000:Cholesterol:DOPE 40:5:25:30 mol%; N/P 4
ENDPOINT_LABEL: PDI
Format: numeric value only, no unit, no commentary.

-- ask Return PDI (reported value) for this compound: CCCCCCCCCCC(O)CN(CCCC(=O)Oc1c(OC)cc(C(=O)OCCCN(C)C)cc1OC)CC(O)CCCCCCCCCC (stereo not shown)
-- reply 0.251

-- ask Return PDI (reported value) for this compound: CCCCCCCCC(O)CN(CCCCC(=O)Oc1c(OC)cc(C(=O)OCCCN(C)C)cc1OC)CC(O)CCCCCCCC (stereo not shown) [Compound 3]
-- reply 0.207

-- ask Return PDI (reported value) for this compound: CCCCCCCCC(O)CN(CCCC(=O)Oc1c(OC)cc(C(=O)OCCCN(C)C)cc1OC)CC(O)CCCCCCCC (stereo not shown)
-- reply 0.235

-- ask Return PDI (reported value) for this compound: CCCCCCCCCCC(O)CN(CCCC(=O)Oc1c(OC)cc(/C=C/C(=O)OCCCN(C)C)cc1OC)CC(O)CCCCCCCCCC (stereo not shown)
-- reply 0.193

----------
experiment: Characterisation of lipid nanoparticle formulations (size, PDI, mRNA encapsulation); type: physicochemical; settings: lipid nanoparticle with FFL mRNA; Process A; Cationic Lipid:DMG-PEG2000:Cholesterol:DOPE 40:5:25:30 mol%; N/P 4
ENDPOINT_LABEL: PDI
Format: numeric value only, no unit, no commentary.

-- ask Return PDI (reported value) for this compound: CCCCCCC/C=C\C/C=C\CCCCC(O)CN(CCCC(=O)Oc1c(OC)cc(C(=O)OCCCN(C)C)cc1OC)CC(O)CCCC/C=C\C/C=C\CCCCCCC (stereo not shown) [Compound 7]
-- reply 0.429

-- ask Return PDI (reported value) for this compound: CCCCCCCCCCC(O)CN(CCCC(=O)Oc1ccc(C(=O)OCCCN(C)C)cc1CC)CC(O)CCCCCCCCCC (stereo not shown) [Compound 12]
-- reply 0.173

-- ask Return PDI (reported value) for this compound: CCCCCCCCCCCCC(O)CN(CCCCC(=O)Oc1c(OC)cc(/C=C/C(=O)OCCCN(C)C)cc1OC)CC(O)CCCCCCCCCCCC (stereo not shown) [Compound 11]
-- reply 0.214

-- ask Return PDI (reported value) for this compound: CCCCCCCCCCC(O)CN(CCCCC(=O)Oc1c(OC)cc(C(=O)OCCCN(C)C)cc1OC)CC(O)CCCCCCCCCC (stereo not shown) [Compound 4]
-- reply 0.198
